Target: Retinaldehyde dehydrogenase 3 (Homo sapiens) (UniProt P47895)
Test: qHTS for Inhibitors of the Aldehyde Dehydrogenase Family (ALDH1A3) Primary screen (AID 2061315); also: potency is read from the fitted curve at half-maximal effect
Settings: ALDH inhibition qHTS; series mostly up to 56 µM
Records with an inconclusive call do not appear. The source made the active and inactive calls. Calls follow the shape of the dose curve; as a rule, active = well fitted inhibition curve with a large enough effect; inconclusive = small, poorly fitted or top-dose-only effect; inactive = no such curve, though single readings can be large or run the other way.
The entries below are paired with their reported Potency.

# query: Potency of entry CC(C)c1cc2c(c(O)c1O)[C@@]13CCCC(C)(C)C1[C@@H](O)[C@@H]2OC3=O (stereo partly specified)
4.47 µM (active)

# query: Potency of entry "COc1cc2c(cc1O)CC[C@H]1[C@@H]2CC[C@]2(C)[C@H](O)CC[C@@H]12"
17.8 µM (active)

---
# query: Potency of entry "CN(C)C(=O)Nc1cc(-c2ccccc2)ccc1N(C)C"
28.2 µM (active)

# query: Potency of entry "C=CC(=O)N1CCN(C(=O)CNc2cc(I)c(Cl)cc2O)CC1"
2.82 µM (active)

# query: Potency of entry O=C(/C=C/c1ccc(O)c(O)c1)O[C@@H]1[C@@H](O)[C@H](OC2CCCCC2O)O[C@H](CO)[C@H]1O (stereo partly specified)
3.98 µM (active)

# query: Potency of entry "Cc1cc(C)cc(C(=O)NOCCCCCC(=O)NO)c1"
6.31 µM (active)

====

The entries below are paired with their reported activation.
Biological target: Cellular tumor antigen p53 (Homo sapiens) (UniProt P04637)
Sequence (P04637 whole entry, looked up): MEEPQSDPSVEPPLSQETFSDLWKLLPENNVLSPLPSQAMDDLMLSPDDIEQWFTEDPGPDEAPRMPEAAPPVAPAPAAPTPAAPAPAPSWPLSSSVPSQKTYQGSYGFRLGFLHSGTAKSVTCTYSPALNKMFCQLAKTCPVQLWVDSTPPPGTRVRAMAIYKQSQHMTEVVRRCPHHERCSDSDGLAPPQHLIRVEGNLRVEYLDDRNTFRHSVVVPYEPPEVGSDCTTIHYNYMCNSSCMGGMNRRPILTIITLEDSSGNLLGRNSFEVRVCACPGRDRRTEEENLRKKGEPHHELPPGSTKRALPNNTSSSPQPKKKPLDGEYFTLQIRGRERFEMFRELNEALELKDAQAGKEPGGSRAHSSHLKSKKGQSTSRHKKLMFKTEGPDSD
Test: Primary qHTS for small molecule compounds that upregulate eGFP-tagged delta133p53alpha (in N-terminal) cells. (AID 2060322);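 also: cells pre-induced with doxycycline then dosed without doxycycline; 0% = DMSO vehicle and 100% = reference activator; nearly all actives have a fitted effect of over 75% in size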
Conditions: NCI-H358 eGFP-delta133p53alpha fluorescence, 24 h; hits give high values
Results filed as inconclusive are left out.
Numeric only. Scale: %

# query: activation of entry CCC(C)/C=C(C)/C=C/C1=CC2=C(Cl)C(=O)C(C)(O)C(=O)C2(O)C(OC)O1 (stereo not given)
28.2

---
# query: activation of entry CC1=C(C(=O)Nc2cc(Cl)ccc2Cl)C(c2ccco2)C2=C(CCCC2=O)N1 (stereo not given)
17.7

# query: activation of entry "Nc1ccc(C(=O)Oc2ccccc2)c(O)c1"
-3.35

# query: activation of entry "CCCCOc1ccc(-c2cncc(C(=O)NCc3cccnc3N3CCOCC3)c2)cc1Cl"
7.64

# query: activation of entry "COc1ccc2nccc(C(=O)CC[C@@H]3CCN(CC#Cc4cc(F)cc(F)c4F)C[C@@H]3C(=O)O)c2c1"
7.64

====

Assay: BET inhibitor-based combinations targeting novel dependencies in MECOM-rearranged (r) AML: AML-191 cell line (AID 2202236; also: nearly all actives have a fitted effect of over 35% in size)
Details: AML-191 viability, CellTiter-Glo luminescence, 48 h; series mostly up to 46 µM
Records with an inconclusive call do not appear. Active and inactive are the calls of the source. The call rests on the fitted dose curve; in most records, active means well fitted inhibition curve with a large enough effect; inconclusive means small, poorly fitted or top-dose-only effect; inactive means flat fitted curve, though single readings scatter.
Your reply should match one of these outcome classes. label 1 for active, label 0 for inactive

As a guide, the following entries are already answered.
Hello, I am checking results. What call was entered for "CCc1ccc(C(=O)Nc2cc(CN3CCN(C)CC3)cc(C(F)(F)F)c2)cc1C#Cc1cnc2ccnn2c1" ?
label 1

Hello, I am checking results. What call was entered for "Clc1ccc2c(N3CCN(CCCN4CCN(c5ccnc6cc(Cl)ccc56)CC4)CC3)ccnc2c1" ?
label 0

Hello, I am checking results. What call was entered for "COc1c(N2C[C@@H]3CCCN[C@H]3C2)c(F)cc2c(=O)c(C(=O)O)cn(C3CC3)c12" ?
label 0

Hello, I am checking results. What call was entered for "CCCCNc1cc(C(=O)O)cc(S(N)(=O)=O)c1Oc1ccccc1" ?
label 0

Hello, I am checking results. What call was entered for "Oc1ccc([C@@H]2Oc3ccc(O)cc3[C@@H]3CCC[C@@H]32)cc1" ?
label 1

Hello, I am checking results. What call was entered for "Cc1cc(Cl)ccc1OCCCC(=O)NO" ?
label 1

# input for lookup
Hello, I am checking results. What call was entered for "CC[C@H](C=C[C@@H](C)[C@H]1CC[C@H]2[C@@H]3CC=C4C[C@@H](O)CC[C@]4(C)[C@@H]3CC[C@]12C)C(C)C" ?
label 0

Data credit: PubChem BioAssay (NCATS)
